- test_summary: Ratio of AUC in mouse brain to AUC in mouse plasma at 5 mg/kg, iv up to 3 hrs
- Format: ADME, organism-based
- Set-up: dose 5 mg/kg, route intravenous
- study_conditions: read-out: Ratio AUC
reported_metric: Kp at 3 h

P = NC(=O)c1c(Nc2ccc(I)cc2F)cc(F)cc1OCC[C@@H](O)CO
Q = NC(=O)c1c(Nc2ccc(I)cc2F)cc(F)cc1OCC[C@@H](O)Cn1ccnc1
Q: Between P and Q , whose measured Kp at 3 h reads higher? Output the label that corresponds to your choice.
A: P
(P: 0.73, Q: 0.04)

====

- Tested on: LoVo
- test_summary: Antiproliferative activity against human LoVo cells
- Type: functional, cell-based
reported_metric: IC50 (nM)

P = NC(=O)c1c(Nc2ccc(I)cc2F)cc(F)cc1Oc1cccc(NS(N)(=O)=O)c1
Q = Cn1cnc2c(F)c(Nc3ccc(Br)cc3Cl)c(C(=O)NOCCO)cc21
Q: Please let me know which one, P or Q , has a lower measured IC50 value. Kindly give the label for the entry you pick.
A: P

====

- test_summary: Volume of distribution at steady state in rat at 0.5 mg/kg, iv and 1 mg/kg, po
- Type: ADME, organism-based
- study_conditions: in vivo, read-out: Vdss
reported_metric: Vd (L/kg)

1 = NC(=O)c1c(Nc2ccc(I)cc2F)cc(F)cc1OCC[C@@H](O)CO
2 = O=C(NOC[C@H](O)CO)c1ccc(F)c(F)c1Nc1ccc(I)cc1F
Q: Quick check, higher Vd between 1 and 2 ? Let me know the label of the one you choose.
A: 1

====

- test_summary: Oral bioavailability in rat
- Type: ADME, organism-based
- study_conditions: in vivo
reported_metric: bioavailability (%)
Give the number; % is assumed, so skip it.

Q: Could you tell me which bioavailability is on file for `CN(C)S(=O)(=O)Nc1cccc(Oc2cc(F)cc(Nc3ccc(I)cc3F)c2C(N)=O)c1` ?
A: 55
